Assay: qHTS for Inhibitors of human tyrosyl-DNA phosphodiesterase 1 (TDP1): qHTS in cells in presence of CPT; note: nearly all actives have a fitted effect of over 55% in size
Settings: chicken DT40 Tdp1-/-;hTDP1 cells + 20 nM CPT, ATP luminescence, 48 h; series mostly up to 46.2 µM
The campaign covered roughly 420,000 compounds. About 50,000 (12%) were called active. Roughly 26% stayed inconclusive and do not appear here. Calls come from the whole dose curve; as a rule, active = well fitted inhibition curve with a large enough effect; inconclusive = small, poorly fitted or top-dose-only effect; inactive = flat fitted curve, though single readings scatter. Shown is part of a subset that was picked to be rich in actives. Where a SMILES comes first, the peptide text is derived from it. The star is where a group is joined. Bz = O=C(c1ccccc1)*
Hello, when you answer, please use one of the following outcomes: active, inactive

COc1cc(OC)c(NC(=O)Cc2ccc(-n3c(C)nc4cccnc43)cc2)cc1Cl = active
O=C(NC(Cc1ccccc1)C(=O)N1CCCC1C(=O)O)c1ccccc1 (stereo not drawn) (Bz-Phe-Pro-OH; configuration not given here) = inactive
O=C(Nc1ccc(NC(=O)c2ccco2)c(Cl)c1)c1cccc([N+](=O)[O-])c1 = inactive
O=C(Nc1c(C(=O)N2CCN(c3ccc(F)cc3)CC2)oc2ccccc12)c1ccco1 = active
COC(=O)CCCC1=CC2=CC(=O)C(C)(OC(=O)c3cccs3)C(=O)C2=CN1c1cccc(C#N)c1 (stereo unspecified) = inactive
COCCCNC(=O)Cc1ccc(-n2c(C)nc3cccnc32)cc1 = inactive

(Q) Give the logged outcome of this assay for the following molecule: CCCOc1ccc(F)cc1-c1cc(C(=O)Nc2ccc(F)c(Cl)c2)[nH]n1
(A) active

(Q) Now this one: O=C(Nc1ccc(Cl)c(Cl)c1)N1CC=C(c2ccccc2)CC1
(A) active

(Q) Now this one: CCC(=O)Nc1c(C(=O)N2CCN(c3ccc(F)cc3)CC2)oc2ccccc12
(A) active

(Q) Now this one: CC(Cc1ccccc1)C(=O)N(C)Cc1ccccc1 (stereo unspecified)
(A) inactive

(Q) Now this one: CCCOc1ccccc1-c1nc(SCCC(=O)O)n[nH]1
(A) inactive

====

Assay: qHTS for Inhibitors of human tyrosyl-DNA phosphodiesterase 1 (TDP1): qHTS in cells in presence of CPT; note: nearly all actives have a fitted effect of over 55% in size; note: potency is the fitted concentration of half-maximal effect
Conditions: chicken DT40 Tdp1-/-;hTDP1 cells + 20 nM CPT, ATP luminescence, 48 h; series mostly up to 46.2 µM
The whole screen tested about 420,000 compounds, of which about 50,000 (12%) were called active. About 26% were inconclusive and are not listed. Many of the other results were omitted from the sample, so actives are more common in it than they were.
metric-name: Potency

CCC1CCCCN1S(=O)(=O)c1ccc(NC(=O)c2cc(=O)c3ccccc3o2)cc1 (stereo not given) = 3.26 µM (active)
CCc1cccc(NC(=O)c2cc(-c3ccccc3)n[nH]2)c1 = inactive
O=C(Nc1cc(S(=O)(=O)N2CCOCC2)ccc1Cl)c1cc(=O)c2ccccc2o1 = 11.6 µM (active)
O=C(Nc1cc(S(=O)(=O)N2CCOCC2)ccc1N1CCOCC1)c1c(F)cccc1Cl = inactive
CSc1ncnc2c1ncn2CCCNCC1CCCCC1 = inactive

Now examine the next entry.
(Q) Recorded Potency of CCN(c1ccccc1)S(=O)(=O)c1cc2c(cc1C)n(C)c(=O)c(=O)n2C , please.
(A) inactive

====

Assay: qHTS for Inhibitors of human tyrosyl-DNA phosphodiesterase 1 (TDP1): qHTS in cells in presence of CPT; note: nearly all actives have a fitted effect of over 55% in size
Conditions: chicken DT40 Tdp1-/-;hTDP1 cells + 20 nM CPT, ATP luminescence, 48 h; series mostly up to 46.2 µM
Out of some 420,000 compounds screened, about 50,000 (12%) were called active. Inconclusive results (about 26%) are left out. Calls follow the shape of the dose curve; as a rule, active = well fitted inhibition curve with a large enough effect; inconclusive = small, poorly fitted or top-dose-only effect; inactive = flat fitted curve, though single readings scatter. This is one part of a sample in which actives are shown more often than they occur.
Hello, when you answer, please use one of the following outcomes: active, inactive

Cc1ccc(-c2nn(-c3ccccc3)cc2C(=O)Nc2cccc(S(=O)(=O)N3CCOCC3)c2)cc1 = inactive
Cn1c(=O)n(Cc2c(F)cccc2Cl)c(=O)c2c1nc1n2CCN1c1ccc(F)cc1 = inactive
COc1ccc(-c2nn(-c3ccccc3)cc2/C=C\C(=O)N2CCOCC2)cc1[N+](=O)[O-] = inactive
O=C(NNC(=S)NC(=O)c1cn(-c2ccccc2)nc1-c1ccccc1)c1ccncc1 = active
Cc1cc(C)cc(N(CCC#N)C(=O)CN2C(=O)NC3(CCCC3)C2=O)c1 = inactive

(Q) Give the logged outcome of this assay for the following molecule: COc1ccc(NC(=O)CSc2nncc(=O)n2N)cc1OC
(A) inactive

====

Assay: qHTS for Inhibitors of human tyrosyl-DNA phosphodiesterase 1 (TDP1): qHTS in cells in presence of CPT; note: nearly all actives have a fitted effect of over 55% in size
Details: chicken DT40 Tdp1-/-;hTDP1 cells + 20 nM CPT, ATP luminescence, 48 h; series mostly up to 46.2 µM
In all, about 420,000 compounds went through this assay and about 50,000 (12%) were called active. Another 26% or so got no clear call; they are omitted. Calls follow the shape of the dose curve; as a rule, active = well fitted inhibition curve with a large enough effect; inconclusive = small, poorly fitted or top-dose-only effect; inactive = flat fitted curve, though single readings scatter. For the sample, actives were picked, then their nearest neighbours and some compounds at random.
Hello, when you answer, please use one of the following outcomes: label 1 = active, label 0 = inactive

Known results for compounds:
Cc1cc(=O)n(CC(=O)Nc2cccc([N+](=O)[O-])c2)c(-n2nc(C)cc2C)n1 = label 1
O=C(CN1CCOCC1)Nc1cccc([N+](=O)[O-])c1 = label 0
CN(C)N=Nc1ccc2nc[nH]c2c1 = label 0
CCn1ccnc1CN(C)C(=O)c1cc(COc2ccc(Cl)cc2OC)on1 = label 0

Now let's try a different one.
(Q) Give the logged outcome of this assay for the following compound: Cc1noc(C)c1S(=O)(=O)N(C)C[C@H]1OCCCC[C@@H](C)Oc2ccc(NC(=O)CCCN(C)C)cc2C(=O)N([C@H](C)CO)C[C@@H]1C
(A) label 0

====

Assay: qHTS for Inhibitors of human tyrosyl-DNA phosphodiesterase 1 (TDP1): qHTS in cells in presence of CPT; note: nearly all actives have a fitted effect of over 55% in size
Conditions: chicken DT40 Tdp1-/-;hTDP1 cells + 20 nM CPT, ATP luminescence, 48 h; series mostly up to 46.2 µM
The whole screen tested about 420,000 compounds, of which about 50,000 (12%) were called active. Inconclusive results (about 26%) are left out. The call rests on the fitted dose curve; in most records, active means well fitted inhibition curve with a large enough effect; inconclusive means small, poorly fitted or top-dose-only effect; inactive means flat fitted curve, though single readings scatter. For the sample, actives were picked, then their nearest neighbours and some compounds at random.
Hello, when you answer, please use one of the following outcomes: true (1) for active, false (0) for inactive

Known results for compounds:
CCC(=O)Nc1ccc(C(=O)N2CCN(C(=O)c3ccco3)CC2)cc1 = false (0)
N#Cc1ccc(/C=C2\CCn3c2nc2cc(C(=O)O)ccc2c3=O)cc1 = false (0)
CN1CCN(c2ccc(NC(=O)c3ccccc3)cc2)CC1 = false (0)
COc1cccc(C(=O)Nc2ccc3nc4n(c(=O)c3c2)CCCCC4)c1 = true (1)
CN(CC(=O)NCCc1ccccc1)S(=O)(=O)c1cnc[nH]1 = false (0)

(Q) Give the logged outcome of this assay for the following compound: O=C(CCc1ccc(O)cc1)NN=Cc1cc(Br)ccc1O
(A) true (1)

(Q) Now this one: Cc1ccc(C)c(OCC(=O)N2CCN(C(=O)c3ccco3)CC2)c1
(A) false (0)

(Q) Now this one: NS(=O)(=O)c1ccc(NC(=O)C(=O)Nc2ccc3nc4n(c(=O)c3c2)CCCCC4)cc1
(A) false (0)

(Q) Now this one: CC(C)OC(=O)CC(=O)CC(O)c1cccc([N+](=O)[O-])c1 (stereo not drawn)
(A) false (0)

(Q) Now this one: Cc1cccc(C)c1OCCN1CCOCC1
(A) false (0)

(Q) Now this one: COc1cc(OC)cc(-c2sc3ccc(OC)cc3c2-c2ccc3cc[nH]c3c2)c1
(A) false (0)

(Q) Now this one: COc1ccc(-c2sc3ccccc3c2-c2ccc(OCCN3CCOCC3)cc2)cc1
(A) true (1)

(Q) Now this one: O=C(Nc1ccc2nc3n(c(=O)c2c1)CCCC3)c1ccc(Cl)nc1
(A) false (0)

(Q) Now this one: COc1cccc(C(=O)Nc2ccc(N3CCN(C(=O)c4ccco4)CC3)cc2)c1
(A) true (1)

(Q) Now this one: NS(=O)(=O)c1cccc(NC(=O)COC(=O)/C=C/c2ccco2)c1
(A) false (0)

====

Assay: qHTS for Inhibitors of human tyrosyl-DNA phosphodiesterase 1 (TDP1): qHTS in cells in presence of CPT; note: nearly all actives have a fitted effect of over 55% in size
Conditions: chicken DT40 Tdp1-/-;hTDP1 cells + 20 nM CPT, ATP luminescence, 48 h; series mostly up to 46.2 µM
The whole screen tested about 420,000 compounds, of which about 50,000 (12%) were called active. Roughly 26% stayed inconclusive and do not appear here. The call rests on the fitted dose curve; in most records, active means well fitted inhibition curve with a large enough effect; inconclusive means small, poorly fitted or top-dose-only effect; inactive means flat fitted curve, though single readings scatter. The entries come from a sample that favours actives as a whole.
Hello, when you answer, please use one of the following outcomes: active, inactive

O=S(=O)(c1ccc2nc(NCc3ccccc3Cl)ccc2c1)N1CCCCC1 = active

(Q) Give the logged outcome of this assay for the following compound: COc1ccc(Cc2nc(-c3ccccn3)no2)cc1OC
(A) inactive

(Q) Now this one: COc1ccc(NC(=O)CSc2nnnn2-c2cccc(OC)c2)cc1
(A) inactive

(Q) Now this one: CCOC(=O)c1c(-c2ccc(C)cc2)csc1/N=C(\C)C1=C(O)c2ccccc2C1=O
(A) active

(Q) Now this one: CC(=NCc1ccco1)C1=C(O)c2ccccc2C1=O
(A) inactive

(Q) Now this one: CCOc1cccc(-n2nnnc2-c2ccc(OC)cc2)c1
(A) active

(Q) Now this one: COc1cnc(-c2ccccn2)nc1Oc1ccc(C(C)(C)C)cc1
(A) active

(Q) Now this one: COc1ccc(Sc2nc(-c3ccccc3)ncc2OC)cc1
(A) inactive

(Q) Now this one: O=S(=O)(c1ccc2nc(N3CCN(c4cccc(Cl)c4)CC3)ccc2c1)N1CCCCC1
(A) inactive

(Q) Now this one: Cc1nnc(SC(C(=O)c2ccccc2)c2ccccc2)[nH]c1=O (stereo unspecified)
(A) inactive

(Q) Now this one: N#CCc1c(C#N)c(N)nc(N2CCCC2)c1C#N
(A) inactive
